# Organism: Homo sapiens
# assay_name: Selectivity ratio of IC50 for human cathepsin L to IC50 for humanized rabbit cathepsin K
The reader will find reported Ratio IC50 values listed item by item below.
Answer with a bare number; do not write a unit.

Consider the following illustrative entries.
chem_smiles=CC(C)(F)C[C@H](N[C@@H](c1ccc(-c2ccc(C3(C(N)=O)CC3)cc2)cc1)C(F)(F)F)C(=O)NC1(C#N)CC1 readout_label="Ratio IC50" measured_result=11100
chem_smiles=C[C@H](C(N)=O)c1ccc(-c2ccc([C@H](N[C@@H](CC(C)(C)F)C(=O)NC3(C#N)CC3)C(F)(F)F)cc2)cc1 readout_label="Ratio IC50" measured_result=21300
chem_smiles=CC(C)(F)C[C@H](N[C@@H](c1ccc(-c2ccc([C@H](O)C(F)F)cc2)cc1)C(F)(F)F)C(=O)NC1(C#N)CC1 readout_label="Ratio IC50" measured_result=14100

INPUT: What measured Ratio IC50 goes with CC(C)(F)C[C@H](N[C@@H](c1ccc(-c2ccc(C(C)(C)O)cc2)cc1)C(F)(F)F)C(=O)NC1(C#N)CC1 ?
OUTPUT: 28900

INPUT: Could you share which Ratio IC50 value was measured for CC(C)(F)C[C@H](N[C@@H](c1ccc(-c2ccc(S(C)(=O)=O)cc2)cc1)C(F)(F)F)C(=O)NC1(C#N)CC1 ?
OUTPUT: 15000
